Listed here: items and their measured DC50.
tgt: SHP2 protein (Homo sapiens, UniProt Q06124)
Sequence (Q06124 1-593): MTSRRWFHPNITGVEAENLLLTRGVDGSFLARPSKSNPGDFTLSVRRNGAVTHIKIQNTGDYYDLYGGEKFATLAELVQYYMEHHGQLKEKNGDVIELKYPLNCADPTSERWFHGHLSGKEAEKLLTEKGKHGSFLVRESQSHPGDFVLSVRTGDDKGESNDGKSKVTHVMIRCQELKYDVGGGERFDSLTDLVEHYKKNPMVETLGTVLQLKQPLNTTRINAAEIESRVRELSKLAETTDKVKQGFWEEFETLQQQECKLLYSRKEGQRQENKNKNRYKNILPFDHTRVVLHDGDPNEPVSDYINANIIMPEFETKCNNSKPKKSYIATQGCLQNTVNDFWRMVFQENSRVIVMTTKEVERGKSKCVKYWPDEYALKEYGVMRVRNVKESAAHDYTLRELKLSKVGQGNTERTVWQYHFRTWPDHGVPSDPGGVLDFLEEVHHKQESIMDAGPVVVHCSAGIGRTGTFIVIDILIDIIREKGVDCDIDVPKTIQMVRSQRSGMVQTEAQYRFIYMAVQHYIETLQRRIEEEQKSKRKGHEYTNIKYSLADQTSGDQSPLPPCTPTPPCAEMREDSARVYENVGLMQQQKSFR
assay-protocol: Degradation activity on SHP2 protein in MIA Paca-2 cells (Western blot, DC50)
Assay type: cell-based
Design: endogenous in cells; host or cells: MIA Paca-2 cells
settings: read-out: Degradation activity for differenct cell lines MIA Paca-2 (DC50)

Known results for compounds:
>>> experimental_result("CC1(N)CCN(c2cnc(Sc3cccc(NCc4ccc(CN5CCN(c6ccc7c(c6)CN(C6CCC(=O)NC6=O)C7=O)CC5)cc4)c3)cn2)CC1 (stereo not drawn)")
"> 1000 nM"
>>> experimental_result("CC1(N)CCN(c2cnc(Sc3cccc(NC(=O)CCCCCCCCN4C5CCC4CC(c4ccc(C(=O)NCc6ccc7c(c6)CN(C6CCC(=O)NC6=O)C7=O)nn4)C5)c3)cn2)CC1 (single isomer, unassigned)")
"< 100 nM"

Then this compound:
input: # DC50 lookup, item CC1(N)CCN(c2cnc(Sc3cccc(NC(=O)c4ccc(N5CCC(N6CCN(c7ccc(C(=O)NCc8ccc9c(c8)CN(C8CCC(=O)NC8=O)C9=O)nc7)CC6)CC5)cn4)c3)cn2)CC1 (stereo not drawn)
output: < 100 nM

* * *

Listing of recorded DC50 by entry.
tgt: UniProt:Q06124
assay-protocol: Degradation activity on SHP2 protein in NCI-H358 cells (Western blot, DC50)
Assay type: cell-based
Design: endogenous in cells
settings: read-out: Degradation activity for differenct cell lines NCI-H358 (DC50)

>>> experimental_result("CC1(N)CCN(c2cnc(Sc3cccc(NC(=O)c4ccc(N5CCC(N6CC=C(c7ccc(C(=O)NCc8ccc9c(c8)CN(C8CCC(=O)NC8=O)C9=O)nc7F)CC6)CC5)c(F)c4)c3)cn2)CC1 (stereo not shown) [Compound 467]")
"100 to 1000 nM"
>>> experimental_result("Cc1ncsc1-c1ccc([C@H](C)NC(=O)[C@@H]2C[C@@H](O)CN2C(=O)[C@@H](NC(=O)c2cnc(N3CC(OCCCCCCCCC(=O)Nc4ccc(Sc5cnc(N6CCC(C)(N)CC6)cn5)cc4)C3)nc2)C(C)(C)C)cc1 [Compound 75]")
"< 100 nM"
>>> experimental_result("CC1(N)CCN(c2cnc(Sc3cccc(NC(=O)c4ccc(N5CCC(N6CC=C(c7cnc(C(=O)NCc8ccc9c(c8)CN(C8CCC(=O)NC8=O)C9=O)cn7)CC6)CC5)cc4)c3)cn2)CC1 (stereo not shown) [Compound 371]")
"< 100 nM"
>>> experimental_result("CC1(N)CCN(c2cnc(Sc3cccc(NC(=O)c4ccc(N5CCC(N6CC=C(c7ccc(C(=O)NCc8ccc9c(c8)CN(C8CCC(=O)NC8=O)C9=O)nc7Cl)CC6)CC5)cc4)c3)cn2)CC1 (stereo not shown) [Compound 398]")
"< 100 nM"
>>> experimental_result("CC1(N)CCN(c2cnc(Sc3cccc(NC(=O)CCCCCCCCN4C5CCC4CC(c4ccc(C(=O)NCc6ccc7c(c6)CN(C6CCC(=O)NC6=O)C7=O)nn4)C5)c3)cn2)CC1 (single isomer, unassigned) [Compound 233]")
"< 100 nM"
>>> experimental_result("Cc1cc(N2CCC(N3CC=C(c4cnc(C(=O)NCc5ccc6c(c5)CN(C5CCC(=O)NC5=O)C6=O)c(Cl)c4)CC3)CC2)ccc1C(=O)Nc1cccc(Sc2cnc(N3CCC(C)(N)CC3)cn2)c1 (stereo not shown) [Compound 443]")
"< 100 nM"
>>> experimental_result("CC1(N)CCN(c2cnc(Sc3cccc(NC(=O)c4ccc(-c5ccc(N6CCC7(CC6)CC7C(=O)NCc6ccc7c(c6)CN(C6CCC(=O)NC6=O)C7=O)cc5)cc4)c3)cn2)CC1 (stereo not shown) [Compound 406]")
"> 1000 nM"
>>> experimental_result("C[C@@H]1CN(CCCCCCCCC(=O)Nc2cccc(Sc3cnc(N4CCC(C)(N)CC4)cn3)c2)CCN1c1ccc(C(=O)NCc2ccc3c(c2)CN(C2CCC(=O)NC2=O)C3=O)nn1 (stereo partly shown) [Compound 239]")
"< 100 nM"
>>> experimental_result("CC1(N)CCN(c2cnc(Sc3cccc(NC(=O)CCCCCCN4CC5(CC=C(c6ccc(C(=O)NCc7ccc8c(c7)CN(C7CCC(=O)NC7=O)C8=O)nc6)CC5)C4)c3)cn2)CC1 (stereo not shown) [Compound 217]")
"< 100 nM"

Turning now to a further compound:
input: Would you mind telling me what DC50 value was observed for CCC1(N)CCN(c2cnc(Sc3cccc(NC(=O)CCCCCCN4CC5(CCN(c6ccc(C(=O)NCc7ccc8c(c7)CN(C7CCC(=O)NC7=O)C8=O)nn6)C5)C4)c3)cn2)CC1 (stereo not shown) [Compound 161] ?
output: 100 to 1000 nM
